# procedure-summary: Trial 000015 Part 1: pharmacokinetics after single intranasal administration
# applied-conditions: female, human, plasma, inhaled or intranasal, 300 ug, Cmax Geom. mean (% CV), single i.n. dose 300 μg, N = 6
*1 amine or outer side, *2 acyl side, *3 side chain or, on linkers, in order; H or OH if unused. Where a SMILES comes first, the peptide text is derived from it. Bridges are numbered along the chain shown (N, C = ends). [ ]: non-standard residue; d: D form. N(4-F-Bzl)Gly = O=C(O)CNCc1ccc(F)cc1; X1 = O=C(CCC[*:2])[*:1]
recorded-endpoint: Cmax

{"molecule": "CC[C@H](C)[C@@H]1NC(=O)[C@H](Cc2ccc(O)cc2)NC(=O)CCCSC[C@@H](C(=O)N(CC(=O)N[C@@H](CC(C)C)C(=O)NCC(N)=O)Cc2ccc(F)cc2)NC(=O)[C@H](CC(N)=O)NC(=O)[C@H](CCC(N)=O)NC1=O [merotocin] (YIQNC[N(4-F-Bzl)Gly]LG-NH2; linker N-5 via X1)", "recorded-endpoint": "Cmax", "recorded-value": "0.143 ng/mL"}

The values you see were collected from patent US20220313774A1.
